# Tested on: Danio rerio Tg(wt1b:EGFP) embryo, pronephros
# protocol-notes: glomerular separation, fold change vs DMSO control; higher = glomeruli further apart (abnormal)
# protocol-conditions: 25 µM; exposure: 24-48 hpf
Where a name gives a salt, the structure may show the parent alone.

molecule	glomerular separation
CNC(=C[N+](=O)[O-])NCCSCc1csc(CN(C)C)n1	0.966
COc1cc(OC)c(C(=O)CCCN2CCCC2)c(OC)c1 [Buflomedil hydrochloride]	1.14
Cc1ncc(C[n+]2csc(CCO)c2C)c(N)n1 [Thiamine hydrochloride]	0.951
CC[C@]12CCCN3CCc4c(n(c5ccccc45)C(=O)C1)[C@@H]32 [Eburnamonine (-)]	1.19
CC(C)(C)C(=O)OCOC(=O)[C@@H]1N2C(=O)[C@@H](NC(=O)[C@H](N)c3ccccc3)[C@H]2SC1(C)C	1.14
CCN(CC)CCOC(=O)C1(c2ccc([N+](=O)[O-])cc2)CCCC1 [Nitrocaramiphen hydrochloride]	0.899
CCC1=C(C)CN(C(=O)NCCc2ccc(S(=O)(=O)NC(=O)N[C@H]3CC[C@H](C)CC3)cc2)C1=O [Glimepiride]	0.872
CN(C)CCN(Cc1ccccc1)c1ccccn1 [Tripelennamine hydrochloride]	0.843
C[C@@H]1C[C@H]2[C@@H]3CCC4=CC(=O)C=C[C@]4(C)[C@@]3(Cl)[C@@H](O)C[C@]2(C)[C@@]1(OC(=O)c1ccco1)C(=O)CCl [Mometasone furoate]	0.99
NCc1ccccc1CC(=O)N[C@@H]1C(=O)N2C(C(=O)O)=C(CSc3nnnn3CC(=O)O)CS[C@H]12 [Ceforanide]	1.15
Cc1ccsc1/C=C/C1=NCCCN1C [Morantel tartrate]	0.982
CCC(=O)OCC(=O)[C@@]1(OC(=O)CC)[C@@H](C)C[C@H]2[C@@H]3CCC4=CC(=O)C=C[C@]4(C)[C@@]3(Cl)[C@@H](O)C[C@@]21C [Beclomethasone dipropionate]	1.04
O=C1Cc2cc(CCN3CCN(c4nsc5ccccc45)CC3)c(Cl)cc2N1 [Ziprasidone Hydrochloride]	1.5
Cc1c(-c2ccccc2)oc2c(C(=O)OCCN3CCCCC3)cccc2c1=O [Flavoxate hydrochloride]	1.17
CCN(CCCCOC(=O)c1ccc(OC)c(OC)c1)C(C)Cc1ccc(OC)cc1 (stereo not given) [Mebeverine hydrochloride]	0.925

###

# Test system: Danio rerio Tg(wt1b:EGFP) embryo, pronephros
# protocol-notes: glomerular separation, fold change vs DMSO control; higher = glomeruli further apart (abnormal)
# protocol-conditions: 25 µM; exposure: 24-48 hpf
Structures can show the parent of a compound that is named as a salt.

compound	glomerular separation
Nc1nc(NC2CC2)c2ncn([C@H]3C=C[C@@H](CO)C3)c2n1 [Abacavir Sulfate]	0.958
C1N2CN3CN1CN(C2)C3	0.642
COc1cc(NS(=O)(=O)c2ccc(N)cc2)nc(OC)n1	1.02
C[N+]1(C)CCC(=C(c2ccccc2)c2ccccc2)CC1 [Diphemanil methylsulfate]	1.35
CC(C)Cn1cnc2c(N)nc3ccccc3c21	0.76

###

# System: Danio rerio Tg(wt1b:EGFP) embryo, pronephros
# protocol-notes: glomerular width (mean of left and right), fold change vs DMSO control; higher = wider glomerulus
# protocol-conditions: 25 µM; exposure: 24-48 hpf
Where a name gives a salt, the structure may show the parent alone.
value-type: glomerular width

molecule	value-type	recorded-value
O=C1CCc2ccc(OCCCCN3CCN(c4cccc(Cl)c4Cl)CC3)cc2N1	glomerular width	0.888
Nc1ccc(/N=N/c2ccccc2)c(N)n1 [Phenazopyridine hydrochloride]	glomerular width	0.979
O=C1Cc2cc(CCN3CCN(c4nsc5ccccc45)CC3)c(Cl)cc2N1 [Ziprasidone Hydrochloride]	glomerular width	1.03
CC1(C)O[C@@H]2[C@@H](CO[C@@]3(COS(N)(=O)=O)OC(C)(C)O[C@@H]23)O1 [Topiramate]	glomerular width	1.09
CC1CNc2c(cccc2S(=O)(=O)N[C@@H](CCCNC(=N)N)C(=O)N2CC[C@@H](C)C[C@@H]2C(=O)O)C1 (stereo partly drawn)	glomerular width	0.949
CNC(=C[N+](=O)[O-])NCCSCc1csc(CN(C)C)n1	glomerular width	0.902
O=C1[C@H]2CCCC[C@H]2C(=O)N1CCCCN1CCN(c2nsc3ccccc23)CC1	glomerular width	0.976
CC(C)(C)NCC(O)COc1cccc2c1CCC(=O)N2 (stereo not drawn) [Carteolol hydrochloride]	glomerular width	0.909
